- measurement target: Grb2 SH2 (UniProt P62993)
- Sequence (P62993 whole entry, looked up, the tested form may be a part): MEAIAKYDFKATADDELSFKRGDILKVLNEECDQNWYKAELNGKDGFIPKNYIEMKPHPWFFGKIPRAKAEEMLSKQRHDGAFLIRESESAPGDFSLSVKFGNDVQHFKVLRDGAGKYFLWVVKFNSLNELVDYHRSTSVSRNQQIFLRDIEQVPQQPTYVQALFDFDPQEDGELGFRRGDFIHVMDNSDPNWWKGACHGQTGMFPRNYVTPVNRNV
- assay name: SH2 binding enrichment of the phosphorylated peptide, bacterial display (enrichment ratio); higher = better substrate or ligand; peptides without Tyr show the background;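 note: peptide library displayed on the E. coli surface as eCPX fusions, selected cells deep-sequenced, score is each peptide's frequency after selection divided by its frequency in the input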
Quick list: SH2 binding enrichment per entry.
Give a plain numeric answer without units written out.

Reference set (2 entries):
>>> readout_value("AYRRGYFDEEM [PLEC_Y2971]")
0.573
>>> readout_value("LQTYRYHGHSM [PDHA1_Y289]")
0.879

q: Retrieve SH2 binding enrichment measured for RIGRKYKRVRF [F8_Y442_K444R] and print it.
a: 0.554

q: Retrieve SH2 binding enrichment measured for LFSDHYSPSGR [TMPRSS12_Y23_YF] and print it.
a: 0.989

q: Retrieve SH2 binding enrichment measured for FGEFRYRSVIK [CFTR_Y517_D513G_YF] and print it.
a: 0.567

q: Retrieve SH2 binding enrichment measured for ADKAAYLQNLN [MYH1_Y389] and print it.
a: 0.659

q: Retrieve SH2 binding enrichment measured for VRFMANTDETF [F8_Y450_Y450N] and print it.
a: 0.645

q: Retrieve SH2 binding enrichment measured for GDLTDYLMKIL [ACTA1_Y190_R185G] and print it.
a: 1.44

q: Retrieve SH2 binding enrichment measured for CQLENYCNGGG [INS_Y108_Y103C] and print it.
a: 1.29

q: Retrieve SH2 binding enrichment measured for KRYRIYHLAIS [BRCA2_Y3009_T3013I] and print it.
a: 1.13

q: Retrieve SH2 binding enrichment measured for IENKPYGMSDP [RET_Y1062_L1061P] and print it.
a: 0.702

q: Retrieve SH2 binding enrichment measured for HTKKNYGNSSV [HDX_Y197_A193T] and print it.
a: 0.907

q: Retrieve SH2 binding enrichment measured for LTPVKYLLSAT [GSDMC_Y26] and print it.
a: 1.08

q: Retrieve SH2 binding enrichment measured for VDSNPYSRLVA [UBA5_Y53_M57V] and print it.
a: 1.38
